Molecular target: Ras GEF SOS (Son of Sevenless) (Homo sapiens, UniProt Q07889)
Experiment: SOS-mediated nucleotide exchange on Ras (BODIPY-GDP fluorescence)
Type: biochemical
Conditions: SOS-mediated exchange of BODIPY-GDP for GTP on Ras
Experimental: Compounds of the present invention were tested for their ability to modify the rate at which Ras exchanges a labeled nucleotide guanosine diphosphate (GDP) analog for guanosine triphosphate (GTP). […] Changes in fluoresence indicating exchange of the labeled GDP for GTP are monitored over time. Raw fluorescence data was fit to a single exponential decay function and derived rates were plotted as mean values. […]
pEC50: −log10 of the molar value.
Endpoint: pEC50

| Compound | pEC50 |
| --- | --- |
| Cc1cc2c(nc(N3CC(CN)C3)n2Cc2ccc(F)c(C)c2)c(-c2ccccc2F)n1 [Example 216] | > 6.00 |

Continue with the compound presented below.
What value of pEC50 has been reported for the following compound? Cc1cc(Cn2c(N3CCNCC3)nc3c(N4CCC(N)CC4)cc(Cl)cc32)cc(C)c1F [Example 319]
> 6.00

====

Biological target: Son of Sevenless (SOS) (Homo sapiens)
Sequence (Q07889 564-1049 limits assumed): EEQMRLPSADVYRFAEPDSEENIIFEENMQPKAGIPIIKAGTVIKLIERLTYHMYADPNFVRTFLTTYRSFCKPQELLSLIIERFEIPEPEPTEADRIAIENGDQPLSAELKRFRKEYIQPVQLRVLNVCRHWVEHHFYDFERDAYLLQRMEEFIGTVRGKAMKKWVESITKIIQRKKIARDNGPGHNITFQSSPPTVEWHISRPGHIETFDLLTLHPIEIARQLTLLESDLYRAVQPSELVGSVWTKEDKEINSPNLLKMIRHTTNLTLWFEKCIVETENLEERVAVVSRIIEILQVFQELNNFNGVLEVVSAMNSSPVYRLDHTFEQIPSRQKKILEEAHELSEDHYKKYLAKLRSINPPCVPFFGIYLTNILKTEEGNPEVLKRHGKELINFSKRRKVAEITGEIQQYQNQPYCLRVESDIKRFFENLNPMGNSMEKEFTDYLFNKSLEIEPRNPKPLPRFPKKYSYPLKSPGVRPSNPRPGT
Where a name gives a salt, the structure may show the parent alone.
Endpoint: Ki

# count of solved cases: 3
| Molecule | Ki |
| --- | --- |
| Cc1cc(N(C)CCN(C)C)c2nc(N3CCNCC3)n(Cc3cc(C)c(F)c(C)c3)c2c1 [Example 191, trifluoroacetate] | 500 to 1000 nM |
| Cc1cc(Cn2c(N3CCNCC3)nc3c(-c4ccc(CN)cc4)cc(Cl)cc32)cc(C)c1F [Example 122, trifluoroacetate] | 500 to 1000 nM |
| Cc1cc2nc(NCCN)n(CC3CCCCC3)c2cc1C [Example 38, trifluoroacetate] | > 5000 nM |

What value of Ki has been reported for the following molecule? Cc1cc(O[C@H]2CCNC2)c2nc(N3CCNCC3)n(Cc3cc(C)c(F)c(C)c3)c2c1
> 5000 nM

What value of Ki has been reported for the following molecule? Clc1ccc(Cn2c(C3CCNCC3)nc3ccccc32)cc1 [Example 58, trifluoroacetate]
> 5000 nM

What value of Ki has been reported for the following molecule? CCC[C@H](N)c1cc(Cl)cc2c1nc(N1CCNCC1)n2Cc1cc(C)c(F)c(C)c1 [Example 164, trifluoroacetate]
< 500 nM

What value of Ki has been reported for the following molecule? Cc1cc2c(nc(N3CCNCC3)n2Cc2ccc(F)c(Cl)c2)c(CCN)c1C [Example 101, trifluoroacetate]
1000 to 5000 nM

What value of Ki has been reported for the following molecule? NCCc1cccc2c1nc(N1CCNCC1)n2Cc1ccc(F)c(Cl)c1 [Example 98, trifluoroacetate]
> 5000 nM

====

biological target: Ras GEF SOS (Son of Sevenless) (Homo sapiens, UniProt Q07889); experiment: SOS-mediated nucleotide exchange on Ras (BODIPY-GDP fluorescence); conditions: SOS-mediated exchange of BODIPY-GDP for GTP on Ras
pEC50: −log10 of the molar value. Structures can show the parent of a compound that is named as a salt.
Each item that follows carries a reported pEC50.

# count of solved cases: 8
| Compound | pEC50 |
| --- | --- |
| Cc1cc(NCCCCN(C)C)c2nc(N3CCNCC3)n(Cc3cc(C)c(F)c(C)c3)c2c1 [Example 196, trifluoroacetate] | 5.30 to 6.00 |
| Cc1cc2c(nc(N3CCNCC3)n2Cc2ccc(F)c(C)c2)c(-c2ccccc2C(C)C)n1 | 4.52 to 5.30 |
| NCCc1cccc2c1nc(N1CCNCC1)n2Cc1cc(F)cc(F)c1 [Example 99, trifluoroacetate] | 4.52 to 5.30 |
| CCC[C@H](N)c1cc(Cl)cc2c1nc(N1CCNCC1)n2Cc1cc(C)c(F)c(C)c1 [Example 164, trifluoroacetate] | 5.30 to 6.00 |
| Cc1ccc2c(n1)nc(N1CCNCC1)n2Cc1ccc(F)c(Cl)c1 | 4.52 to 5.30 |
| Cc1cc2nc(N3CCCNCC3)n(Cc3ccc(F)c(Cl)c3)c2cc1C [Example 36, trifluoroacetate] | 4.52 to 5.30 |
| Cc1ccc2nc([C@@H]3CCC(=O)N3)n(Cc3ccc(F)c(Cl)c3)c2c1 | 5.30 to 6.00 |
| Cc1cnc2nc(NC3CCNC3)n(Cc3ccc(F)c(Cl)c3)c2c1 (stereo not drawn) | 5.30 to 6.00 |

What value of pEC50 has been reported for the following compound? Cc1cc(Cn2c(N3CCNCC3)nc3c([C@@H](N)c4ccccc4)cc(Cl)cc32)cc(C)c1F [Example 159, trifluoroacetate]
> 6.00

====

Biological target: UniProt:Q07889
Sequence (Q07889 564-1049 limits assumed): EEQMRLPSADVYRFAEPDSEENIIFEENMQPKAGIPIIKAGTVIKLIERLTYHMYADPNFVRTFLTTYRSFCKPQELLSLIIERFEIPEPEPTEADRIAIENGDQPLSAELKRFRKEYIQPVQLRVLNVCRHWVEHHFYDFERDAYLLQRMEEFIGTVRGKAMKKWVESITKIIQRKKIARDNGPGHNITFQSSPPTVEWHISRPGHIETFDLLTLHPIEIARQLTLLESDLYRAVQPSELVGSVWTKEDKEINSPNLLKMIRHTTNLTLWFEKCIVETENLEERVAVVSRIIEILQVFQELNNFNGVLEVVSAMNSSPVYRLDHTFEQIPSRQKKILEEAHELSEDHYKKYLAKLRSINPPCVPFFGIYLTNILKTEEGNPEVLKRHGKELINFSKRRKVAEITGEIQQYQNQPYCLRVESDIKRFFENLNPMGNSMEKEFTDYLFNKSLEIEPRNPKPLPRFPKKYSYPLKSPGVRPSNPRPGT
pKi: −log10 of the molar value. Where a name gives a salt, the structure may show the parent alone.
Each item that follows carries a reported pKi.

| Molecule | Tested target | pKi |
| --- | --- | --- |
| Fc1ccc(Cn2c(N3CCNCC3)nc3ccc(C4CC4)cc32)cc1Cl [Example 62, trifluoroacetate] | UniProt:Q07889 | < 5.30 |

Find the measured pKi: item Cc1cc2nc(N3CCNCC3)n(CC3CCCCC3)c2cc1C [Example 37, trifluoroacetate] , target or system UniProt:Q07889.
< 5.30

Find the measured pKi: item Cc1cc2nc(N3CCNCC3)n(Cc3cc(F)cc(F)c3)c2cc1C [Example 18, trifluoroacetate] , target or system UniProt:Q07889.
< 5.30

Find the measured pKi: item Cc1cc(N2CCC(N)CC2)c2nc(N3CCNCC3)n(Cc3cc(C)c(F)c(C)c3)c2c1 [Example 188, trifluoroacetate] , target or system UniProt:Q07889.
6.00 to 6.30

Find the measured pKi: item Cc1cc2c(nc(NCCN)n2Cc2ccc(F)c(Cl)c2)c(-c2ccccc2Cl)c1C [Example 113, trifluoroacetate] , target or system UniProt:Q07889.
> 6.30

Find the measured pKi: item Cc1cc(Cn2c(NCCN)nc3c([C@@H](N)c4ccccc4)cc(Cl)cc32)cc(C)c1F [Example 160, trifluoroacetate] , target or system UniProt:Q07889.
> 6.30

Find the measured pKi: item Cc1ccc2nc([C@@H]3CCC(=O)N3)n(Cc3ccc(F)c(Cl)c3)c2c1 [Example 274] , target or system UniProt:Q07889.
< 5.30

Find the measured pKi: item CC(C)CN1CC[C@@H](C(=O)c2ccccc2)[C@@H]1c1cc(Cl)cc2c1nc(N1CCNCC1)n2Cc1ccc(F)c(Cl)c1 [Example 151, trifluoroacetate] , target or system UniProt:Q07889.
< 5.30

Find the measured pKi: item N[C@H](c1cc(Cl)cc2c1nc(N1CCNCC1)n2Cc1ccc(F)c(Cl)c1)C1CC1 [Example 167, trifluoroacetate] , target or system UniProt:Q07889.
6.00 to 6.30

Find the measured pKi: item Cc1cc2nc(N3CCNCC3)n(Cc3ccc(Cl)cc3)c2cc1C [Example 19, trifluoroacetate] , target or system UniProt:Q07889.
< 5.30

Find the measured pKi: item Cc1cc2nc(NCCN(C)C)n(Cc3cc(C)c(F)c(C)c3)c2cc1C [Example 44, trifluoroacetate] , target or system UniProt:Q07889.
< 5.30

Find the measured pKi: item CCc1cc(Cn2c(N3CCNCC3)nc3cc(C)c(C)cc32)cc(Cl)c1F [Example 48, trifluoroacetate] , target or system UniProt:Q07889.
5.30 to 6.00
